Where do the numbers come from? From the supplement of paper PMC10567573.

B1: EHMT1 (parent)
chain: EEINKNISDFGRQQLLPPFPSLHQ

# Variants of: B1
# Experimental details: protein stability index of a GFP-peptide fusion (GPS, HEK-293T) (PSI 1-6); higher = more stable;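 also: lentivirally expressed fusions sorted by FACS into six bins by GFP to DsRed ratio, PSI derived from sequencing read proportions per bin multiplied by bin number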
# Cond: c terminus: a fixed tail appended
Param threshold (3) applies to protein stability index; output rule met when value >= threshold, rule not met when value < threshold.

Record excerpt, results attached:
{"Macromolecule sequence": "EEINKNFSDFGRQQLLPPFPSLHQ", "Class assignment": "rule met"}
{"Macromolecule sequence": "EEINKNISDFGRQNLLPPFPSLHQ", "Class assignment": "rule not met"}
{"Macromolecule sequence": "EHINKNISDFGRQQLLPPFPSLHQ", "Class assignment": "rule not met"}
{"Macromolecule sequence": "EEINKNITDFGRQQLLPPFPSLHQ", "Class assignment": "rule not met"}
{"Macromolecule sequence": "EEINKNISWFGRQQLLPPFPSLHQ", "Class assignment": "rule not met"}

State whether the measured protein stability index reaches 3, counting equality as reaching it, for EEINKNISDFSRQQLLPPFPSLHQ
rule not met

Next variant up: CEINKNISDFGRQQLLPPFPSLHQ
rule not met

Next variant up: EEINKNISDFCRQQLLPPFPSLHQ
rule not met

Next variant up: EEINKNILDFGRQQLLPPFPSLHQ
rule not met

Next variant up: EEINKNISDFGRQQLLPPFPNLHQ
rule not met

Next variant up: EEINKNISYFGRQQLLPPFPSLHQ
rule not met

Next variant up: EEINKNISDFGRQQLLPCFPSLHQ
rule met

Next variant up: EEINKNISDFGRQQLLPPFLSLHQ
rule not met
